B1: CDC25A (parent)
chain: TVAGKHQDLKYISPEIMASVLNGK

variants of: B1; test: protein stability index of a GFP-peptide fusion (GPS, HEK-293T) (PSI 1-6); higher = more stable; details: c terminus: a fixed tail appended;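 further: lentivirally expressed fusions sorted by FACS into six bins by GFP to DsRed ratio, PSI derived from sequencing read proportions per bin multiplied by bin number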
Label no (0) if protein stability index falls below 3; label yes (1) in every other case.

variant_identifier=Y11M assigned_label="yes (1)"
variant_identifier=S13L assigned_label="no (0)"
variant_identifier=E15W assigned_label="no (0)"
variant_identifier=M17F assigned_label="no (0)"
variant_identifier=H6Y assigned_label="yes (1)"
variant_identifier=I16E assigned_label="yes (1)"
variant_identifier=V2G assigned_label="yes (1)"
variant_identifier=L21A assigned_label="yes (1)"
variant_identifier=K10L assigned_label="no (0)"
variant_identifier=A18G assigned_label="yes (1)"
variant_identifier=K24D assigned_label="yes (1)"
variant_identifier=S13D assigned_label="yes (1)"
variant_identifier=I12H assigned_label="yes (1)"
variant_identifier=A3E assigned_label="yes (1)"
variant_identifier=G23L assigned_label="no (0)"
variant_identifier=K10I assigned_label="no (0)"
variant_identifier=Y11T assigned_label="yes (1)"
variant_identifier=G4M assigned_label="no (0)"
variant_identifier=Q7P assigned_label="yes (1)"
variant_identifier=V20S assigned_label="yes (1)"
variant_identifier=V2A assigned_label="yes (1)"
variant_identifier=N22C assigned_label="no (0)"
variant_identifier=E15V assigned_label="no (0)"
variant_identifier=L9N assigned_label="yes (1)"
variant_identifier=A3T assigned_label="yes (1)"
variant_identifier=K5G assigned_label="yes (1)"
variant_identifier=A3F assigned_label="no (0)"
variant_identifier=P14Q assigned_label="no (0)"
variant_identifier=L21E assigned_label="yes (1)"
variant_identifier=Q7I assigned_label="no (0)"
variant_identifier=Y11D assigned_label="yes (1)"
variant_identifier=N22F assigned_label="no (0)"
variant_identifier=D8N assigned_label="no (0)"
variant_identifier=A18S assigned_label="yes (1)"
variant_identifier=L9G assigned_label="yes (1)"
variant_identifier=I12G assigned_label="yes (1)"
variant_identifier=G23N assigned_label="yes (1)"
variant_identifier=A3P assigned_label="yes (1)"
variant_identifier=S13R assigned_label="yes (1)"
variant_identifier=Q7W assigned_label="no (0)"
variant_identifier=G4S assigned_label="yes (1)"
variant_identifier=P14W assigned_label="no (0)"
variant_identifier=T1E assigned_label="yes (1)"
variant_identifier=V2Y assigned_label="no (0)"
variant_identifier=K24G assigned_label="no (0)"
variant_identifier=Q7V assigned_label="yes (1)"
variant_identifier=I12A assigned_label="yes (1)"
variant_identifier=P14L assigned_label="no (0)"
variant_identifier=T1A assigned_label="yes (1)"
variant_identifier=K10N assigned_label="yes (1)"
variant_identifier=G23E assigned_label="yes (1)"
variant_identifier=D8Q assigned_label="no (0)"
variant_identifier=A18F assigned_label="no (0)"
variant_identifier=L21Y assigned_label="yes (1)"
variant_identifier=V2C assigned_label="yes (1)"
variant_identifier=G23Y assigned_label="no (0)"
variant_identifier=V20A assigned_label="yes (1)"
variant_identifier=M17R assigned_label="yes (1)"
variant_identifier=S13M assigned_label="no (0)"
variant_identifier=I12Q assigned_label="yes (1)"
variant_identifier=G4T assigned_label="yes (1)"
variant_identifier=V2D assigned_label="yes (1)"
variant_identifier=L21D assigned_label="yes (1)"
variant_identifier=I12L assigned_label="yes (1)"
variant_identifier=Y11L assigned_label="yes (1)"
variant_identifier=I12N assigned_label="yes (1)"
variant_identifier=M17S assigned_label="yes (1)"
variant_identifier=S13H assigned_label="no (0)"
variant_identifier=M17E assigned_label="yes (1)"
variant_identifier=Y11S assigned_label="yes (1)"
variant_identifier=H6A assigned_label="yes (1)"
variant_identifier=Y11P assigned_label="yes (1)"
variant_identifier=L21R assigned_label="yes (1)"
variant_identifier=I16A assigned_label="yes (1)"

From: the supplement of paper PMC10567573
